B1: TEKT4 (parent)
chain: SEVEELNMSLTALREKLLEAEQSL

# Variants of: B1
# assay_info: protein stability index of a GFP-peptide fusion (GPS, HEK-293T) (PSI 1-6); higher = more stable;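 also: lentivirally expressed fusions sorted by FACS into six bins by GFP to DsRed ratio, PSI derived from sequencing read proportions per bin multiplied by bin number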
# measurement_context: c terminus: a fixed tail appended
readout: protein stability index

> print(dat)
    variant  endpoint.result
 1      E2F             1.76
 2     A12V             3.06
 3      S9K             2.82
 4     S23A             2.47
 5     K16E             3.19
 6     L18S             4.65
 7     S23D             3.36
 8     L18C             4.07
 9     R14I             2.83
10     E15K             3.38
11     K16C             3.24
12     E21K             3.42
13     E21Q             3.44
14     A20S             4.18
15      S1K             2.23
16     L13I             4.14
17     L18I             2.39
18      N7V             1.95
19     E15F             2.27
20     E21M             3.16
21     L18Q             4.23
22      M8S             2.81
23      E5T             2.54
24      E4G             2.89
25     T11F             1.76
26     L13S              4.8
27      L6P             3.99
28      E5D             2.63
29     T11R              3.1
30      E2P             3.14
31     E15V              2.3
32     L13C             4.68
33     Q22C             2.37
34     T11V             2.36
35      L6T             3.02
36      E4Q             2.32
37      M8R             2.12
38     L17A             5.53
39      M8V             3.77
40      L6H             3.31
41      S1V             2.76
42      E2M             2.74
43     A12T              2.3
44     L24T             4.97
45     Q22T             3.64
46     T11L              2.8
